Source of measurements: paper PMC8276234

# measured_on: C53S/C397S PDI (Homo sapiens, UniProt P07237, C397S/C53S)
# Sequence (P07237 18-508 C53S/C397S): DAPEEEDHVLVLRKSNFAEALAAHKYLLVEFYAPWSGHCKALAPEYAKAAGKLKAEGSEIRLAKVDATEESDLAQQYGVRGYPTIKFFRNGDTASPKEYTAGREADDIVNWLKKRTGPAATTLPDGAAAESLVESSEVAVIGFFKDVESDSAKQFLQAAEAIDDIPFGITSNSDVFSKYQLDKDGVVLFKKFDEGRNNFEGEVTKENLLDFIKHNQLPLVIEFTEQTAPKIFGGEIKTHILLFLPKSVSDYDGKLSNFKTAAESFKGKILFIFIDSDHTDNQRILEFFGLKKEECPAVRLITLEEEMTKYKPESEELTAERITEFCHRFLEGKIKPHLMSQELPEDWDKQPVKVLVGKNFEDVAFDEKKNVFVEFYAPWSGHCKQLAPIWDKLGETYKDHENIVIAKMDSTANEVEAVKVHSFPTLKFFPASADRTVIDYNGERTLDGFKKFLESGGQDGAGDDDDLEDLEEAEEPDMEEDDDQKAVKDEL
# assay_protocol: Thermal shift assay, C53S/C397S PDI
# Type: binding
# measurement_setup: 100 μM
quantity_kind: stabilization (thermal shift) in the C53S/C397S mutant

COC(=O)c1cccc(/C=C/C(=O)c2cccc(O)c2)c1 = not abolished
O=C(/C=C/c1ccc(-c2cccnc2)cc1)c1cccc(O)c1 = not abolished
CCCCCN(CCCCC)S(=O)(=O)c1ccc(C(=O)/C=C/c2cccc(O)c2)cc1 = not abolished

====

# measured_on: H256A PDI (Homo sapiens, UniProt P07237, H256A)
# Sequence (P07237 18-508 H256A): as the sequence (P07237 18-508 C53S/C397S) above, with S36C, H239A, S380C counted along it
# assay_protocol: Thermal shift assay, H256A PDI
# Format: binding
# measurement_setup: 100 μM
quantity_kind: stabilization (thermal shift) in the H256A mutant

Here's what some known entries look like.
O=C(/C=C/c1ccc(-c2cccnc2)cc1)c1cccc(O)c1 = not abolished
COC(=O)c1cccc(/C=C/C(=O)c2cccc(O)c2)c1 = not abolished
N#Cc1cccc(/C=C/C(=O)c2ccc(O)cc2)c1 = abolished
C[C@]12CC[C@@H]3c4ccc(O)cc4CC[C@H]3[C@@H]1CC[C@@H]2O [estradiol, reference compound] = abolished

Note: attention shifts to another entry.
Sample CCCCCN(CCCCC)S(=O)(=O)c1ccc(C(=O)/C=C/c2cccc(O)c2)cc1 ; stabilization (thermal shift) in the H256A mutant observed: not abolished

====

# System: U87MG
# assay_protocol: MTT growth inhibition assay, U87MG
# Type: cell-based, human
# measurement_setup: read-out: IC50, cytotoxicity U87MG, 72 hours, listed as 6 (BAP2)
quantity_kind: IC50 (µM)
Answer in µM, number only, no unit symbol.

Item N#Cc1cccc(/C=C/C(=O)c2ccc(O)cc2)c1 was tested on U87MG; the reported IC50 is 10.3

====

# measured_on: wild-type PDI (Homo sapiens)
# Sequence (P07237 18-508): as the sequence (P07237 18-508 C53S/C397S) above, with S36C, S380C counted along it
# assay_protocol: Thermal shift assay, wild-type PDI
# Format: binding
# measurement_setup: 100 μM
quantity_kind: stabilization of PDI to thermal denaturation

O=C(/C=C/c1ccc(-c2ccncc2)cc1)c1cccc(O)c1 = did not stabilize PDI
CCCCCN(CCCCC)S(=O)(=O)c1ccc(C(=O)/C=C/c2cccc(C#N)c2)cc1 = did not stabilize PDI
